Target: human NKp30 (human) (UniProt O14931)
Sequence (O14931 19-135 limits assumed): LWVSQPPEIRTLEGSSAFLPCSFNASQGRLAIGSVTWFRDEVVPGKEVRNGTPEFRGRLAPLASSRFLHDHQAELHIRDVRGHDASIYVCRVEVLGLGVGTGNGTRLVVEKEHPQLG
Test: BLI, ratio to ΔB7-H6_wt
ASSAY READOUT: log10 of KD improvement compared to ΔB7-H6 wt (log10 of the value in fold)
Please note: log10 values; quantity KD improvement compared to ΔB7-H6 wt; unit fold.

Here is how some binders turned out for log10 of KD improvement compared to ΔB7-H6 wt.
BINDER	REPORTED RESULT
ΔB7-H6_S3#11-SEED-PGLALA (bispecific antibody, part only; not given: SEED Fc chains and hu225 Fab, part only) chain, part: DLKVEMMAGGTQITPLNDNVTIFCNIFYSQPLNITLMGITWFWKSLTFDKEVKVFEFWGDHQEAFRPGAIVSPWRLKSGDASLRLPGIQLEEAGEYRCEVIVTPFKAQGTVQLEVVASPAS	1.02
ΔB7-H6_S2#1-SEED-PGLALA (bispecific antibody, part only; not given: SEED Fc chains and hu225 EGFR Fab, part only) chain, part: DLKVEMMAGGTQITPLNDNVTIFCNIFYSQPLNITSMGITWFWKSLTFDKEVKVFEFYGDHQEAFRPGAIVSPWRLKSGDASLRLPGIQLEEAGEYRCEVVVTPYKAQGTVQLEVVASPAS	0.30
ΔB7-H6_S2#14-SEED-PGLALA (bispecific antibody, part only; not given: SEED Fc chains and hu225 Fab, part only) chain, part: DLKVEMMAGGTQITPLNDNVTIFCNIFYSQPLNITTMGITWFWKSLTFDKEVKVFEFFGDHQEAFRPGAIVSPWRLKSGDASLRLPGIQLEEAGEYRCEVVVTPYKAQGTVQLEVVASPAS	0.28
ΔB7-H6_S3#14-SEED-PGLALA (bispecific antibody, part only; not given: SEED Fc chains and hu225 Fab, part only) chain, part: DLKVEMMAGGTQITPLNDNVTIFCNIFYSQPLNITTMGITWFWKSLTFDKEVKVFEFYGDHQEAFRPGAIVSPWRLKSGDASLRLPGIQLEEAGEYRCEVVVTPYKAQGTVQLEVVASPAS	1.08
ΔB7-H6_wt-SEED-PGLALA (bispecific antibody, part only; not given: SEED Fc chains and hu225 Fab, part only) chain, part: DLKVEMMAGGTQITPLNDNVTIFCNIFYSQPLNITSMGITWFWKSLTFDKEVKVFEFFGDHQEAFRPGAIVSPWRLKSGDASLRLPGIQLEEAGEYRCEVVVTPLKAQGTVQLEVVASPAS	0.00
ΔB7-H6_S3#23-SEED-PGLALA (bispecific antibody, part only; not given: SEED Fc chains and hu225 Fab, part only) chain, part: DLKVEMMAGGTQITPLNDNVTIFCNIFYSQPLNITEMGITWFWKSLTFDKEVKVFEFYGDHQEAFRPGAIVSPWRLKSGDASLRLPGIQLEEAGEYRCEVVVTPYKAQGTVQLEVVASPAS	0.57
ΔB7-H6_S3#15-SEED-PGLALA (bispecific antibody, part only; not given: SEED Fc chains and hu225 Fab, part only) chain, part: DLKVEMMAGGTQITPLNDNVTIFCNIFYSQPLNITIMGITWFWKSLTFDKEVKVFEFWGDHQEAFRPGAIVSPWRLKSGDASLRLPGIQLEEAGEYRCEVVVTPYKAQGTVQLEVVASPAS	1.52

Now take the following binder into account.
Record ΔB7-H6_S3#9-SEED-PGLALA (bispecific antibody, part only; not given: SEED Fc chains and hu225 EGFR Fab, part only) chain, part: DLKVEMMAGGTQITPLNDNVTIFCNIFYSQPLNITHMGITWFWKSLTFDKEVKVFEFFGDHQEAFRPGAIVSPWRLKSGDASLRLPGIQLEEAGEYRCEVVVTPYKAQGTVQLEVVASPAS . Reported log10 of KD improvement compared to ΔB7-H6 wt: 0.85
